pKd: recorded values
Target: LecBPA7 (Pseudomonas paraeruginosa)
Sequence (A6V267 entry or part of it): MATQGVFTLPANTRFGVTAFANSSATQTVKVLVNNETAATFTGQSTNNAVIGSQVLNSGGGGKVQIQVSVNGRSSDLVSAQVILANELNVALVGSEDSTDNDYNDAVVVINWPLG
Assay: ITC
Type: binding
Parameters: gene PSPA7_1769; recombinant LecBPA7
For clarity, pKd is expressed as the negative log10 of concentration in mol/L.

compound="CO[C@@H]1O[C@@H](C)[C@@H](O)[C@@H](O)[C@@H]1O [FucOMe, methyl α-L-fucoside]" assayed_system="LecBPA7 (Pseudomonas paraeruginosa)" reported_measurement=5.66

**Query** Using the record for CO[C@H]1O[C@H](CO)[C@@H](O)[C@H](O)[C@@H]1O [ManOMe, methyl α-D-mannoside] , report its pKd.
**Result** 4.14
